Target: Dickkopf-related protein 1 (Homo sapiens)
Assay: DKK1 binders on small-molecule microarrays, primary screen, biochemical, small-molecule microarray, 635 nm fluorescence scan (AID 1106);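 also: score merges emission near 667 nm with signal to noise over three replicate slides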
Conditions: DKK1 binding, higher = more signal
Examples of compounds with documented composite z-score follow.
readout_name: composite z-score

INSERT INTO measurements (compound_smiles, endpoint_value) VALUES
  ('COc1cc(Cc2cc3c(c(-c4ccccc4)n2)[Si](C(C)C)(C(C)C)OC3)cc(OC)c1OC', 0.17),
  ('C=C(CC1([C@@H](NP(=O)(c2ccccc2)c2ccccc2)[C@H]2C[C@@H]2CCCC)CC1)c1cccc(OC)c1', -1.14),
  ('COc1ccc(CCNC(=O)[C@@H]2c3ccccc3C(=O)N(Cc3cc(F)cc(C(F)(F)F)c3)[C@H]2c2ccc(CO)cc2)cc1', 0.157),
  ('C=C(CCCC)C(=O)CC[C@@H](OC(C)=O)c1ccc(OCCO)cc1', 0.268),
  ('C[C@]1(C(=O)NCC(F)(F)F)c2ccccc2C(=O)N(Cc2cc(C(F)(F)F)cc(C(F)(F)F)c2)[C@H]1c1ccc(CO)cc1', -0.399),
  ('C=C(C(=O)CC[C@H](OC(=O)c1ccccc1-c1ccccc1C(=O)O)c1ccc(OCCO)cc1)C(C)C', 0.339),
  ('C=C(COC)/C(=C/C[C@@H](OC(=O)c1ccncc1)c1ccccc1OCCO)c1cnc2ccccc2c1', 0.651),
  ('O=C1O[C@@H](c2ccccc2)[C@@H](c2ccccc2)N2[C@@H](c3ccccc3OCCO)[C@]3(C(=O)Nc4ccc(C#CC5(O)CCCCCC5)cc43)[C@@H](C(=O)N3CCCCCCC3)[C@H]12', 2.68);
